- Test system: HT29 colon
- runDescription: NCI-60 one-dose screen, 48 h (100 = growth as untreated, 0 = no growth, -100 = all killed)
- assayContext: 10 µM unless noted
- Experimental: Growth inhibition of the HT29 human tumor cell line is measured as a screen for anti-cancer activity. Cells are grown in 96 well plates and exposed to the test compound for 48 hours. Compounds are tested at a single concentration, which is 10^-5 M for most compounds. The reported endpoint is percent growth (GI% or GIPRCNT), where numbers from 0 - 100% represent growth inhibition, and numbers from -100% - 0 represent cell death. For example, a value of 40 represents 60% growth inhibition. […]
This is part of a sample that, as a whole, favours compounds with a hit. Of some 83,000 tested, about 20% had one in any assay.
Tick true if growth is 50% or greater. Tick false if growth is less than 50%.

Consider the following illustrative entries.
In [3]: df
Out[3]:
                                   compound  discretelabel
0  CCOC(=O)c1c2c(n3cccc(F)c13)C(=O)c1ncccc1C2=O          false
1             CCCCNCCCCCNc1cc(OC)cc2cccnc12           true
2  Cc1ccc2c(Cn3cc(CSc4nc5ccccc5o4)nn3)cc(=O)oc2c1           true
3  COc1ccc2c(c1OC)CO[C@@H]2[C@H]1c2c(cc3c(c2OC)OCO3)CCN1S(=O)(=O)c1cn(C)cn1          false
4  Cc1cc(N2CCN(CCNc3ccnc4cc(Cl)ccc34)CC2)nc(N2CCOCC2)n1          false

Data request: Is it the case that c1ccc2cc(C[n+]3ccn(CCCCCCCCCCn4cc[n+](Cc5ccc6ccccc6c5)c4)c3)ccc2c1 has growth reaching or exceeding 50%?
Data returned: false

Data request: I'd appreciate it if you could say whether COC(=O)c1c2c(c(C)[n+]([O-])c1C)C(=O)C(NCc1cccc(OC)c1)=CC2=O has growth at least equal to 50%.
Data returned: false

Data request: // inclusive: growth at least 50%? input: CCOC(=O)c1ccc(NC(=O)c2nc(-c3cc(OC)c(OC)c(OC)c3)n(-c3ccc(Cl)cc3)n2)cc1
Data returned: true

Data request: State whether the measured growth reaches 50%, counting equality as reaching it, for COc1cc2ncnc(Nc3ccc(S(=O)(=O)Nc4cc(C)on4)cc3)c2cc1OCCCN1CCN(c2ccc(F)cc2)CC1
Data returned: true

====

- System: SK-MEL-28 melanoma
- runDescription: NCI-60 one-dose screen, 48 h
- assayContext: 10 µM unless noted
This is part of a sample that, as a whole, favours compounds with a hit. Of some 83,000 tested, about 20% had one in any assay. The source made the active and inactive calls. The calls were made as follows: active = growth percent below 10; inactive = the rest.
Thanks in advance; please answer with one of these: active, inactive

Data request: Would you mind telling me which call this test gave COc1cc2c(c(OC)c1OC)CCC(c1cccc(C(=O)Nc3cccc(Cl)c3)c1)O2 (centres undefined) ?
Data returned: inactive

Data request: // param item: N#CC1=C(N)Oc2c(c(=O)[nH]c3ccc(Cl)cc23)C12C(=O)c1ccccc1C2=O ; yields the recorded call
Data returned: inactive

Data request: // return assay outcome for O=C(CSc1nc2ccc([N+](=O)[O-])cc2[nH]1)Nc1ccc([N+](=O)[O-])cc1
Data returned: inactive

Data request: Lab log entry: Nc1cnc(C(=O)NNc2nc3cc(F)ccc3n3cccc23)cn1 — outcome as called in the assay?
Data returned: inactive

Data request: Check the results log: what was the call for COc1ccc2[nH]c(C(=O)N3CCN(C(=O)OCc4ccc5c(Cl)cc(Cl)c(O)c5n4)CC3)cc2c1 ?
Data returned: active

Data request: How was O=C(O)CCN1C(=O)/C(=C/C(Cl)=C/c2ccccc2)SC1=S classified in this test?
Data returned: inactive

Data request: Could you kindly confirm the outcome this assay logged for CC(=O)N1N=C(c2ccc(C(F)(F)F)c(F)c2)CC1c1[nH]c(C)c(C(=O)NCC(F)(F)F)c1C (centres undefined) ?
Data returned: inactive

Data request: // outcome(item) with item = CC/C=C\C[C@H](O)C/C=C1/C(=O)C=C[C@@H]1C/C=C\CCCC(=O)N(C)C
Data returned: inactive

Data request: // outcome(item) with item = CN1C(=O)/C(=C\c2c(Cl)cccc2Cl)c2ccccc21
Data returned: inactive

Data request: For COC12C=C/C(=C(/C(=O)OCc3ccncc3)C(=O)CCCCCCCCC3(OC)C=C/C(=C(/C(=O)OCc4ccncc4)C(=O)CCCCCCCC1)O3)O2 , what call appears in the results of this test?
Data returned: active
